- TARGET_OR_TEST_SYSTEM: T1, streptavidin (UniProt P22629 37-163, limits assumed)
- T1 construct: Used as phycoerythrin conjugate or on coated beads; also called SA; streptavidin-phycoerythrin
- T1 sequence (P22629 37-163 limits assumed): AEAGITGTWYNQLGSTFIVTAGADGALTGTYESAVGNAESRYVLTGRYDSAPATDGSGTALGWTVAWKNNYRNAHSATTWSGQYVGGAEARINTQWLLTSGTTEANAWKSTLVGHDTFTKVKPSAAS
- TEST_DESCRIPTION: apparent whole-cell KD, flow cytometry with streptavidin-phycoerythrin
Each record here notes measured Kd.
Write the number in nM without appending the unit.

Answered cases to consult:
BINDER: RLEICQNVCYYLGTL (Insert only; also called SA-1 pep) [SA-1]
READOUT_UNITS: nM
Kd: 10
//
BINDER: TVLICMNICWTGETQ (Insert only) [SA-3]
READOUT_UNITS: nM
Kd: 4

Now examine the next entry.
Task: So what's the measured Kd for this one? ICSYVMYTTCFLRVY (Insert only) [SA-2]
Output: 8
